test: Volume of distribution at steady state in Balb/c mouse at 1 mg/kg, iv administered as bolus by LC-MS/MS analysis; type: ADME, organism-based; conditions: in vivo, read-out: Vdss
recordedEndpoint: Vd

> print(dat)
                                inputsmiles  reportedmeasurement
1  COC(=O)C1=C2C[C@H](NS(C)(=O)=O)CN2C(c2nccs2)=N[C@H]1c1ccc(F)cc1Cl               2 L/kg

---

experiment: AUC (0 to last) in Balb/c mouse at 1 mg/kg, iv administered as bolus by LC-MS/MS analysis; assay type: ADME, organism-based; design: dose 1 mg/kg, time 0 - last, route intravenous; details: in vivo
recordedEndpoint: AUC(0-t) (µM·h)

> print(dat)
                                inputsmiles  unitsymbol  reportedmeasurement
1  COC(=O)C1=C2C[C@H](NS(C)(=O)=O)CN2C(c2nccs2)=N[C@H]1c1ccc(F)cc1Cl        µM·h                  1.7

All values here come from ChEMBL document CHEMBL4130455.
